system: TO-N3-2 (biotin conjugate); assay: pull-down binding Z-score (relative to library population); higher = stronger binding; settings: RNA library: Library-2
Label t when pull-down binding Z-score is at or above -0.7; otherwise label f.

Look over these answered cases.
residues="GGGAUAUUUGCAUUAUACUUAUCC [hsa-mir-5009]" measured_on="TO-N3-2 (biotin conjugate)" group=t
residues="CAGUCCUGAGAUGCAGGGACUG [hsa-mir-4799]" measured_on="TO-N3-2 (biotin conjugate)" group=f

Could you please find out whether "AAUGAGUUUUACGCAUAUUUGCGUAAACAUU" has pull-down binding Z-score that meets -0.7 or exceeds it? f

Could you please find out whether AAACCCGGUAAUUUUAACAAAGACUUCUAUGACUUUGCUGUGUCUAAGGGUUU [SHAPE_invivo_SARS-CoV-2_Motif_278] has pull-down binding Z-score that meets -0.7 or exceeds it? f

Could you please find out whether AUGUUCGCUUCAUUCAUCAUGAAUAA [hsa-mir-655] has pull-down binding Z-score that meets -0.7 or exceeds it? t

Could you please find out whether UGAGCAGGCCCAGAACCCAGCUCGUGCUCA [hsa-mir-6794] has pull-down binding Z-score that meets -0.7 or exceeds it? t

---

tested on: TO-3-N3-2 (biotin conjugate); assay: pull-down binding Z-score (relative to library population); higher = stronger binding; conditions: RNA library: Library-2
quantity: pull-down binding Z-score

Consider the reported pull-down binding Z-score for these sequences:
residues=UGGGGACCAGGAACUAAUCAGACAAGGAACUGAUUACAAACAUUGGCCGCAAAUUGCACAAUUUGCCCCCA data_value=0.0998
residues="UUUAGAUUUAAAUAGUGAUUGUCUAG [hsa-mir-29b-1]" data_value=-0.0424
residues=UCACAGAAUGCUGUAGCCUCAAAGAUUUUGGGACUACCAACUCAAACUGUUGA data_value=-0.271
residues="ACAGAGACUGAUAGUAAGUUCUCUGU [IAV_invivo_NA_6_Motif_16+IAV_invivo_NA_6_Motif_16]" data_value=-0.328

Read the next record carefully.
Please report the recorded pull-down binding Z-score for "GUUUUUCUGUUUGGAACUUUAAUUUUAGCCAUGGCAGAUUCCAACGGUACUAUUACCGUUGAAGAGCUUAAAAAGCUCCUUGAAC" . -0.23

---

system: TO-3-N3 (biotin conjugate); experiment: pull-down binding Z-score (relative to library population); higher = stronger binding; conditions: RNA library: Library-2
Label Condition met when pull-down binding Z-score is at or above -0.3; otherwise label Condition not met.

residues="GAGCUGCCCUGUCGGUGAAGCUC [IAV_invivo_NA_6_Motif_6+IAV_invivo_NA_6_Motif_6]" measured_on="TO-3-N3 (biotin conjugate)" group="Condition met"
residues="GAGUGUAAUUACGUACAUGCAGUAGCUC [hsa-mir-618]" measured_on="TO-3-N3 (biotin conjugate)" group="Condition met"

Could you please find out whether UUCUCGGUUGGCCGCAGACUCGUACAAGAA [hsa-mir-219b] has pull-down binding Z-score that meets -0.3 or exceeds it? Condition not met

Could you please find out whether GACAUGCUCUGACUCCCCUGAUGUC [hsa-mir-6852] has pull-down binding Z-score that meets -0.3 or exceeds it? Condition met

Could you please find out whether GCUGCACAAAAAGC [IAV_invivo_NP_5_Motif_13+IAV_invivo_NP_5_Motif_13] has pull-down binding Z-score that meets -0.3 or exceeds it? Condition not met

Could you please find out whether CUCUAGACUCUAUUAUAGUUUCCUGAG [hsa-mir-558] has pull-down binding Z-score that meets -0.3 or exceeds it? Condition not met

Could you please find out whether CUGGUCCAUGCUCAUACCCAAGCAGAAAGUGGCAGGCCCUCUUUGUAUCAGAAUGGACCAG [IAV_invivo_NS1_NEP_8_Motif_8+IAV_invivo_NS1_NEP_8_Motif_8] has pull-down binding Z-score that meets -0.3 or exceeds it? Condition not met

Could you please find out whether GGGAAGAACACC [IAV_invivo_M1_M2_7_Motif_3+IAV_invivo_M1_M2_7_Motif_3] has pull-down binding Z-score that meets -0.3 or exceeds it? Condition met

Could you please find out whether UUUGCAUCUGGACGACGAAU [hsa-mir-409] has pull-down binding Z-score that meets -0.3 or exceeds it? Condition not met

---

pull-down binding Z-score by entry:
tested on: TO-3-N3-2 (biotin conjugate); test: pull-down binding Z-score (relative to library population); higher = stronger binding; conditions: RNA library: Library-2
// response body must contain only the number

residues=GCUCAGGAUGGUAAUGCUGCUAUCAGC data_value=-0.00388
residues="GGAGUAAGUCUGAUACUUACCUG [U1snRNP5ss-1]" data_value=-0.152
residues="ACAGGAGUCACCUUUUGU [SHAPE_invitro_SARS-CoV-2_Motif_112]" data_value=-0.599

Report pull-down binding Z-score for UUAAAUGUGUCAUUUAAAAAUUCAG [hsa-mir-1972-1_1972-2] tested on TO-3-N3-2 (biotin conjugate). 0.161

Report pull-down binding Z-score for UAGUCCUGUUGCACUACGACAGAUGUCUUGUGCUGCCGGUACUA [DMSMaPseq_invitro_SARS-CoV-2_Motif_226] tested on TO-3-N3-2 (biotin conjugate). -0.381

Report pull-down binding Z-score for GCACUCUGUAGUUUGGGUACACAGUGC [hsa-mir-5011] tested on TO-3-N3-2 (biotin conjugate). -0.259

Report pull-down binding Z-score for GGCAUCUGCGGGCC [IAV_invivo_NP_5_Motif_21+IAV_invivo_NP_5_Motif_21] tested on TO-3-N3-2 (biotin conjugate). -0.641

Report pull-down binding Z-score for AAAGCCAGGGACCCUGAGAGGCUUU [hsa-mir-6885] tested on TO-3-N3-2 (biotin conjugate). 0.0899

Report pull-down binding Z-score for CCAUUAUUGCUACUGUUCAGCAGGUGCUGCUGGUGGUGAUGG [hsa-mir-1260b] tested on TO-3-N3-2 (biotin conjugate). -0.25

Report pull-down binding Z-score for GAAAAAUCCCUGUUAACUUUC [hsa-mir-6833] tested on TO-3-N3-2 (biotin conjugate). 0.174

---

system: TO-N3 (biotin conjugate); test: pull-down binding Z-score (relative to library population); higher = stronger binding; settings: RNA library: Library-2
Label Condition met when pull-down binding Z-score is at or above -0.04; otherwise label Condition not met.

Look over these answered cases.
residues="GAUUAUUACAGAUC [DMSMaPseq_invitro_SARS-CoV-2_Motif_169]" group="Condition not met"
residues=AUCCGAUUUACAGGAU group="Condition not met"

We now examine a further sequence.
Could you please find out whether "CACUUCUUUCUUUGAGAGAAGUG" has pull-down binding Z-score that meets -0.04 or exceeds it? Condition not met

---

tested on: G-clamp-N3 (biotin conjugate); experiment: pull-down binding Z-score (relative to library population); higher = stronger binding; settings: RNA library: Library-1 (pre-miRNA loops + repeats)
quantity: pull-down binding Z-score
// response body must contain only the number

Consider the reported pull-down binding Z-score for these sequences:
residues="ACACCUGUAAAGAAUUGGUCAGCCUGGGGACUGGUGAUCUCUGCAGCUGU [hsa-mir-4265]" data_value=-0.15
residues="GUCAGGAGUGGCUUUCCUGAC [hsa-mir-4462]" data_value=-0.232
residues="CCCUGCCCAGUGCAGGAG [hsa-mir-6069]" data_value=0.386

Report pull-down binding Z-score for GGACAUCCUUCCAUAGUAAAUAAGCGGUGCC [hsa-mir-8064] tested on G-clamp-N3 (biotin conjugate). -0.584

Report pull-down binding Z-score for CUUCGGUAUUCAUCAAAAAUACCAAAG [hsa-mir-4735] tested on G-clamp-N3 (biotin conjugate). -0.293

Report pull-down binding Z-score for UUGGCGUAGUGAAAUAUAUAUUAAACACCAA [hsa-mir-16-2] tested on G-clamp-N3 (biotin conjugate). -0.484

Report pull-down binding Z-score for UGCAAAUGCAAAGUUGGCUUUUGCA [hsa-mir-3680-2_3680-1] tested on G-clamp-N3 (biotin conjugate). 1.8

Report pull-down binding Z-score for UUUUUCCAUUGUAAGUAAUGGGAAAA [hsa-mir-548f-5] tested on G-clamp-N3 (biotin conjugate). 0.457

---

system: TO-N3 (biotin conjugate); test: pull-down binding Z-score (relative to library population); higher = stronger binding; details: RNA library: Library-2
quantity: pull-down binding Z-score

Consider the reported pull-down binding Z-score for these sequences:
residues=CUAAUAACACUAAAGGUUCAUUGCCUAUUAAUGUUAUAG data_value=-0.0515
residues="GCCUUGUUGCAUAUGGAUCAAGC [hsa-mir-103a-1]" data_value=-0.178
residues="CUGGGAAGGGAGCUGUCCGGCUCCCCAG [hsa-mir-3155b]" data_value=-0.53

Read the next record carefully.
Please report the recorded pull-down binding Z-score for GUUGACUGUUGAAUCUCAUGGCAAC [hsa-mir-21] . 0.0029

---

test system: TO-N3 (biotin conjugate); assay: pull-down binding Z-score (relative to library population); higher = stronger binding; details: RNA library: Library-2
pull-down binding Z-score by entry:
// response body must contain only the number

residues="GACACUUUCACUAUAUAUAGUGGC [hsa-mir-3156-3]" measured_on="TO-N3 (biotin conjugate)" data_value=-0.354
residues="UUUCUAUAACUGGAUGAAA [hsa-mir-498]" measured_on="TO-N3 (biotin conjugate)" data_value=-0.488
residues="GGUUUGCGCCUCAAGAAACC [hsa-mir-1255b-2]" measured_on="TO-N3 (biotin conjugate)" data_value=-0.0954

Please report the recorded pull-down binding Z-score for GUCAGUGAAACACAGGGAACAGAGAAACUGAC [IAV_invivo_PB2_1_Motif_24+IAV_invivo_PB2_1_Motif_24] . -0.399

Please report the recorded pull-down binding Z-score for UUUUGACAUUACUUUCAAAGACAAAA [hsa-mir-548f-1] . -1.09

Please report the recorded pull-down binding Z-score for CCCUGCACUCAGUUUGCACAGGG [hsa-mir-4511] . -0.122

Please report the recorded pull-down binding Z-score for ACAGCAGAGUGCUGU [IAV_invivo_M1_M2_7_Motif_17+IAV_invivo_M1_M2_7_Motif_17] . -0.887

Please report the recorded pull-down binding Z-score for CUGAGUAACUUGUGCUUAUAACUCAG [hsa-mir-5000] . 0.194

Please report the recorded pull-down binding Z-score for CAUAUGUAUGUAUGUAUGUCUGUUACACAUAUG [hsa-mir-3688-1] . -0.818

Please report the recorded pull-down binding Z-score for CCUCACCUGCUGAGAG [hsa-mir-3670-3_3670-2_3670-1_3670-4] . -0.143
